test: Single ascending dose study, plasma pharmacokinetics of Compound (1) and GHB
Assay type: in vivo, human
condition-details: human, plasma, po, 1.5 g, Cohort 3 (1.50 g) single oral dose, fasted; read-out: Compound (1) plasma t1/2, Mean (converted)
observable: half-life (h)
Provide the reading as a plain figure in h.

Task: Recorded half-life for CC(C)[C@H](N)C(=O)OCCCC(=O)O [Compound (1), 4-((L-valyl)oxy)butanoic acid] , please?
Result: 1.04

----------
test: Multiple ascending dose study, plasma pharmacokinetics of Compound (1) and GHB
Format: in vivo, human
condition-details: human, plasma, oral, 6 g/day, Cohort 10 (6.0 g/day in a single dose), Dosing Day 10; read-out: Compound (1) plasma AUC0-tlast, Mean
observable: AUC(0-t)
The reply must contain the numeric value and, after it, the unit.

Task: Recorded AUC(0-t) for `CC(C)[C@H](N)C(=O)OCCCC(=O)O` , please?
Result: 16300 ng·h/mL

----------
test: Single ascending dose study, plasma pharmacokinetics of Compound (1) and GHB
Assay type: in vivo, human
condition-details: human, plasma, po, 0.5 g, Cohort 2 (0.50 g) single oral dose, fasted; read-out: Compound (1) plasma AUC0-inf, Mean
observable: AUC(0-inf)
The reply must contain the numeric value and, after it, the unit.

Task: Recorded AUC(0-inf) for CC(C)[C@H](N)C(=O)OCCCC(=O)O [Compound (1), 4-((L-valyl)oxy)butanoic acid] , please?
Result: 1290 ng·h/mL

----------
test: Single ascending dose study, plasma pharmacokinetics of Compound (1) and GHB
Format: in vivo, human
condition-details: human, plasma, po, 3 g, Cohort 4 (3.00 g) single oral dose, fasted; read-out: Compound (1) plasma Cmax, Median
observable: Cmax (ng/mL)
Provide the reading as a plain figure in ng/mL.

Task: Recorded Cmax for `CC(C)[C@H](N)C(=O)OCCCC(=O)O` , please?
Result: 11200

----------
test: Single ascending dose study, plasma pharmacokinetics of Compound (1) and GHB
Format: in vivo, human
condition-details: human, plasma, po, 6 g, Cohort 6 (6.00 g) single oral dose, fasted; read-out: Compound (1) plasma t1/2, Median (converted)
observable: half-life (h)
Provide the reading as a plain figure in h.

Task: Recorded half-life for `CC(C)[C@H](N)C(=O)OCCCC(=O)O` , please?
Result: 1.18

----------
test: Single ascending dose study, plasma pharmacokinetics of Compound (1) and GHB
Format: in vivo, human
condition-details: human, plasma, po, 0.5 g, Cohort 2 (0.50 g) single oral dose, fasted; read-out: Compound (1) plasma Cmax, Median
Protocol: The plasma concentrations of Compound (1) and GHB in plasma in healthy human subjects were measured using liquid chromatography tandem mass-spectroscopy and evaluated using PHOENIX™ WINNONLIN® version 8.1 (Pharsight Corporation, USA) and MICROSOFT® EXCEL® (Microsoft Corporation, USA). […] Plasma samples were obtained at various times following oral administration and the plasma concentrations of Compound (1) and GHB were measured.
observable: Cmax

Task: Recorded Cmax for `CC(C)[C@H](N)C(=O)OCCCC(=O)O` , please?
Result: 1270 ng/mL

----------
test: Single ascending dose study, plasma pharmacokinetics of Compound (1) and GHB
Assay type: in vivo, human
condition-details: human, plasma, po, 3 g, Cohort 4 (3.00 g) single oral dose, fasted; read-out: Compound (1) plasma AUC0-inf, Mean
observable: AUC(0-inf) (µg·h/mL)
Provide the reading as a plain figure in µg·h/mL.

Task: Recorded AUC(0-inf) for CC(C)[C@H](N)C(=O)OCCCC(=O)O [Compound (1), 4-((L-valyl)oxy)butanoic acid] , please?
Result: 7.52
